ASSAY_PROCEDURE: Plasma pharmacokinetics in phase 1, open-label, fixed-sequence, 2-period drug interaction trial (MK-8591-005)
Format: in vivo, human
STATED_CONDITIONS: human, plasma, oral, plasma islatravir; single 20 mg islatravir on day 8 with 50 mg dolutegravir + 300 mg TDF once daily days 1-11, period 2; N = 12; read-out: AUC0‐inf, AM (SD)
READOUT_TYPE: AUC (µM·h)
Please state the figure in µM·h; there is no need to write the unit.

Input: Tell us which AUC value is on record for "C#C[C@]1(CO)O[C@@H](n2cnc3c(N)nc(F)nc32)C[C@@H]1O"
Output: 2.53

====

Recorded half-life, one value per entry.
ASSAY_PROCEDURE: Plasma pharmacokinetics in phase 1, open-label, fixed-sequence, 2-period drug interaction trial (MK-8591-005)
Assay type: in vivo, human
STATED_CONDITIONS: human, oral; plasma, steady state; 50 mg dolutegravir + 300 mg TDF once daily days 1-7, period 2, without islatravir; N = 12; read-out: Apparent terminal t1/2, geometric mean (geometric CV %) (converted)

C[C@H](Cn1cnc2c(N)ncnc21)OCP(=O)(O)O : 822 min

Input: Tell us which half-life value is on record for "C[C@@H]1CCO[C@H]2Cn3cc(C(=O)NCc4ccc(F)cc4F)c(=O)c(O)c3C(=O)N12"
Output: 912 min

====

Recorded concentration at 24 h, one value per entry.
ASSAY_PROCEDURE: Plasma pharmacokinetics in phase 1, open-label, fixed-sequence, 2-period drug interaction trial (MK-8591-005)
Assay type: in vivo, human
STATED_CONDITIONS: human, plasma, oral, plasma, steady state; 50 mg dolutegravir + 300 mg TDF once daily days 1-7, period 2, without islatravir; N = 12; read-out: C24, AM (SD)
Please state the figure in ng/mL; there is no need to write the unit.

C[C@H](Cn1cnc2c(N)ncnc21)OCP(=O)(O)O [Tenofovir] : 43.6

We next turn to a different compound, shown below.
Input: Tell us which concentration at 24 h value is on record for C[C@@H]1CCO[C@H]2Cn3cc(C(=O)NCc4ccc(F)cc4F)c(=O)c(O)c3C(=O)N12 [Dolutegravir]
Output: 1220

====

ASSAY_PROCEDURE: Plasma pharmacokinetics in phase 1, open-label, fixed-sequence, 2-period drug interaction trial (MK-8591-005)
Type: in vivo, human
STATED_CONDITIONS: human, plasma, po, 20 mg, plasma islatravir; islatravir alone, single oral 20 mg, day 1 period 1; N = 12; read-out: Apparent terminal t1/2, geometric mean (geometric CV %) (converted)
READOUT_TYPE: half-life (h)
Please state the figure in h; there is no need to write the unit.

Input: Tell us which half-life value is on record for "C#C[C@]1(CO)O[C@@H](n2cnc3c(N)nc(F)nc32)C[C@@H]1O"
Output: 56.6

====

ASSAY_PROCEDURE: Plasma pharmacokinetics in phase 1, open-label, fixed-sequence, 2-period drug interaction trial (MK-8591-005)
Type: in vivo, human
STATED_CONDITIONS: human, plasma, po, 20 mg, plasma islatravir; islatravir alone, single oral 20 mg, day 1 period 1; N = 12; read-out: AUC0‐inf, GM (95%CI)
READOUT_TYPE: AUC (µM·h)
Please state the figure in µM·h; there is no need to write the unit.

Input: Tell us which AUC value is on record for C#C[C@]1(CO)O[C@@H](n2cnc3c(N)nc(F)nc32)C[C@@H]1O [Islatravir, 4′‐Ethynyl‐2‐fluoro‐2′‐deoxyadenosine]
Output: 1.97
